Hey, just so you know, these numbers are from patent US6492416B1.

# systemUnderTest: COX-1 (Mus musculus)
# Sequence (P22437 27-602): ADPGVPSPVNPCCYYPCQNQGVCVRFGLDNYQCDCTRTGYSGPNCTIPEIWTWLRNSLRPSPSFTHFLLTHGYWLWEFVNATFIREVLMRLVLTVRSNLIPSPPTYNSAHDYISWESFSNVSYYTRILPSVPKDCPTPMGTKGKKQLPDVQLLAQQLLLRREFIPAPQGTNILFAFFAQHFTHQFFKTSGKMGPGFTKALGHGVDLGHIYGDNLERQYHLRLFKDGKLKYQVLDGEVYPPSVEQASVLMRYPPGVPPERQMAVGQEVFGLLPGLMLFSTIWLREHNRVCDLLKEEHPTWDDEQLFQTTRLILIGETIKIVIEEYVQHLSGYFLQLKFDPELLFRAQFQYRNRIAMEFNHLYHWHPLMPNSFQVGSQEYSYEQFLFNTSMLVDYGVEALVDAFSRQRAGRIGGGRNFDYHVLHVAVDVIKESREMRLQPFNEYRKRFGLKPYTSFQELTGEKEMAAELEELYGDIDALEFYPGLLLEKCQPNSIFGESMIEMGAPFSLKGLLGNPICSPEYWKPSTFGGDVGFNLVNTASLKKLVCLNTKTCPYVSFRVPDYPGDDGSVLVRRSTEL
# measurementNotes: Evaluation of COX-1 activity: PGE2 formation in mouse peritoneal macrophages without aspirin and LPS treatment
# Type: cell-based
Known IC50, μg/ml COX-1 of a selection of compounds

| compound | qual | IC50, μg/ml COX-1 (µg/mL) |
| --- | --- | --- |
| Cc1cc(C2=C(c3cc(F)cc(F)c3)C(=O)C(C)(C)O2)ccc1S(C)(=O)=O [Example 382] | = | 200 |
| Cc1cc(C2=C(c3cccc(F)c3)C(=O)C(C)(C)O2)ccc1S(C)(=O)=O [Example 378] | = | 3 |
| CC(C)c1ccc(C2=C(c3ccc(S(C)(=O)=O)cc3)OC(C)(C)C2=O)cc1 [Example 84] | = | 3 |
| CC1(C)OC(c2ccc(S(C)(=O)=O)c(F)c2)=C(c2ccc(F)cc2)C1=O [Example 276] | = | 10 |
| CC1(C)OC(c2ccc(S(C)(=O)=O)c(Cl)c2)=C(c2ccc(F)c(F)c2)C1=O [Example 361] | = | 4 |
| CCNS(=O)(=O)c1ccc(C2=C(c3ccccc3)C(=O)C(C)(C)O2)cc1Cl [Example 373] | = | 600 |
| COc1cccc(C2=C(c3ccc(S(N)(=O)=O)cc3)OC(C)(C)C2=O)c1 [Example 135] | > | 10 |
| C[S+]([O-])c1ccc(C2=C(c3cc(F)cc(F)c3)C(=O)C(C)(C)O2)cc1 (centres unmarked) [Example 177] | = | 30 |
| CC1(C)OC(c2ccc(S(C)(=O)=O)cc2)=C(c2cccc(Cl)c2)C1=O [Example 62] | = | 2 |
| CC1(C)OC(c2ccc(S(C)(=O)=O)c(Cl)c2)=C(c2cccc(Cl)c2)C1=O [Example 358] | = | 8 |
| CC(=O)c1cccc(C2=C(c3ccc(S(C)(=O)=O)cc3)OC(C)(C)C2=O)c1 [Example 5] | = | 50 |
| CCCc1ccc(C2=C(c3ccc(S(C)(=O)=O)cc3)OC(C)(C)C2=O)cc1 [Example 96] | = | 3 |
| CCC1(CC)OC(c2ccc(S(C)(=O)=O)cc2)=C(c2ccc(C)cc2)C1=O [Example 245] | = | 3 |
| CC1(C)OC(c2ccc(S(C)(=O)=O)cc2)=C(c2ccc(O)cc2)C1=O [Example 104] | = | 100 |
| CC1(C)OC(c2ccc(S(N)(=O)=O)cc2)=C(c2ccccc2F)C1=O [Example 155] | = | 1.8 |
| CC1(C)OC(c2ccc(S(C)(=O)=O)cc2)=C(c2ccccc2Cl)C1=O [Example 69] | = | 50 |
| CC1(C)OC(c2ccc(S(C)(=O)=O)cc2)=C(c2cc(F)ccc2F)C1=O [Example 103] | = | 20 |
